# PROCEDURE SUMMARY: Cytotoxicity against human L02 cells by SRB method
# Assay type: toxicity, cell-based
pIC50: −log10 of the molar value.
READOUT TYPE: pIC50

Known results for compounds:
CS[C@@]12CC3=COC=C[C@H](O)[C@H]3N1C(=O)[C@]1(SC)CC3=COC=C[C@H](O)[C@H]3N1C2=O    < 4.52
CS[C@@]12CC3=COC=C[C@H](OC(C)=O)[C@H]3N1C(=O)[C@]1(SC)CC3=COC=C[C@H](OC(=O)CC(C)=C(C)C)[C@H]3N1C2=O    < 4.52

[in] # lookup: pIC50 of CC(C)=C(C)CC(=O)O[C@H]1C=COC=C2C[C@@]34SSSS[C@]5(CC6=COC=C[C@H](O)[C@H]6N5C3=O)C(=O)N4[C@@H]21
[out] 5.07

[in] And what about the compound CS[C@@]12CC3=COC=C[C@H](OC(=O)CC(C)=C(C)C)[C@H]3N1C(=O)[C@]1(SC)CC3=COC=C[C@H](O)[C@H]3N1C2=O ?
[out] < 4.52

[in] And what about the compound COc1cccc2c1C(=O)c1c(O)c3c(c(O)c1C2=O)C[C@@](O)(C(=O)CO)C[C@@H]3O[C@H]1C[C@H](N)[C@H](O)[C@H](C)O1 [DOXORUBICIN] ?
[out] > 6.00

[in] And what about the compound O=C(Cc1ccccc1)O[C@H]1C=COC=C2C[C@@]34SSSS[C@]5(CC6=COC=C[C@H](O)[C@H]6N5C3=O)C(=O)N4[C@@H]21 ?
[out] 4.74

[in] And what about the compound CC(=O)O[C@H]1C=COC=C2C[C@@]34SS[C@]5(CC6=COC=C[C@H](O)[C@H]6N5C3=O)C(=O)N4[C@@H]21 [ARANOTIN] ?
[out] 4.80

[in] And what about the compound CS[C@@]12CC3=COC=C[C@H](OC(C)=O)[C@H]3N1C(=O)[C@]1(SC)CC3=COC=C[C@H](OC(C)=O)[C@H]3N1C2=O ?
[out] < 4.52

[in] And what about the compound CS[C@@]12CC3=COC=C[C@H](OC(C)=O)[C@H]3N1C(=O)[C@]1(SC)CC3=COC=C[C@H](O)[C@H]3N1C2=O ?
[out] < 4.52
